test: Mice PK study, oral dosing; type: in vivo; settings: plasma, CD-1 mouse, 10 mg/kg, read-out: Bioavailabilty

compound	bioavailability / %
CC1(C)CCC(CN2CCN(c3ccc(C(=O)NS(=O)(=O)c4ccc(NCC5CCOCC5)c([N+](=O)[O-])c4)c(N4CCCOc5nc6[nH]ccc6cc54)c3)CC2)=C(c2ccc(Cl)cc2)C1 [Example 2]	49
CC1(C)CCC(CN2CCN(c3ccc(C(=O)NS(=O)(=O)c4ccc(NCC5(F)CCOCC5)c([N+](=O)[O-])c4)c(N4CCCOc5nc6[nH]ccc6cc54)c3)CC2)=C(c2ccc(Cl)cc2)C1 [Example 3]	30

* * *

Entries and their measured IC50 follow.
Test system: MV411
Test: In vitro anti-proliferation assay (ATPlite), MV411
Assay type: cell-based
Details: Homo sapiens, MV4-11; 5% FBS, about 72 hours
Method: Biological Example 3: In Vitro Anti-Proliferation Assay in Small Cell Lung Cancer (SCLC) Cell Line Cell antiproliferation was assayed by PerkinElmer ATPlite™ Luminescence Assay System. […] Finally, the luminescence was measured by a PerkinElmer TopCount® Microplate Scintillation Counter. […]

compound	IC50 (µM)
CC1(C)CCC(CN2CCN(c3ccc(C(=O)NS(=O)(=O)c4ccc(NCC5CCOCC5)c([N+](=O)[O-])c4)c(Oc4cnc5[nH]ccc5c4)c3)CC2)=C(c2ccc(Cl)cc2)C1 [ABT-199]	0.0201
CC1(C)CCC(CN2CCN(c3ccc(C(=O)NS(=O)(=O)c4ccc(NCC5CCOCC5)c([N+](=O)[O-])c4)c(N4CCCOc5nc6[nH]ccc6cc54)c3)CC2)=C(c2ccc(Cl)cc2)C1 [Example 2]	0.0016

* * *

Entries and their measured IC50 follow.
test system: BCL-2-dependent acute lymphoblastic leukemia (ALL) cell line RS4;11; assay: In vitro anti-proliferation assay (ATPlite) in RS4;11; type: cell-based; conditions: Homo sapiens; RS4;11, 5% FBS, about 72 hours; read-out: IC50, RS4; 115% FBS
reported.metric: IC50 (pM)

line.notation	reported.metric	units	readout.relation	observed.value
CC1(C)CCC(CN2CCN(c3ccc(C(=O)NS(=O)(=O)c4ccc(NCC5CCOCC5)c([N+](=O)[O-])c4)c(N4CCCOc5nc6[nH]ccc6cc54)c3)CC2)=C(c2ccc(Cl)cc2)C1	IC50	pM	=	120
CC1(C)CCC(CN2CCN(c3ccc(C(=O)NS(=O)(=O)c4ccc(NCC5CCOCC5)c([N+](=O)[O-])c4)c(Oc4cnc5[nH]ccc5c4)c3)CC2)=C(c2ccc(Cl)cc2)C1	IC50	pM	=	5800
CC1(C)CCC(CN2CCN(c3ccc(C(=O)NS(=O)(=O)c4ccc(NCC5(F)CCOCC5)c([N+](=O)[O-])c4)c(N4CCCOc5nc6[nH]ccc6cc54)c3)CC2)=C(c2ccc(Cl)cc2)C1	IC50	pM	<	100
